# measured.target: T1, HaloTag-ATRX ADD domain (163-292)
# T1 chain: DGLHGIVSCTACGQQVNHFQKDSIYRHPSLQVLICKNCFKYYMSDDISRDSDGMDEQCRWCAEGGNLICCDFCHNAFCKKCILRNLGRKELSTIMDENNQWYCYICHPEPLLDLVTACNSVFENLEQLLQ
# experimental.protocol: peptide microarray binding signal (635 nm), min-max normalized on array (fraction of array maximum); higher = stronger binding
# condition.set: peptide region: Unmod H1 variant; binder concentration: 500 nM
Rule: yes for peptide microarray binding signal not less than 0.01, no for anything less.

As a guide, the following entries are already answered.
{"binder": "KKLKKATGASKKS [Unmod H1 variant K K L K K A T G A S K K S]", "discrete.label": "no"}
{"binder": "LKKALAAAGYDVE [Unmod H1 variant L K K A L A A A G Y D V E]", "discrete.label": "yes"}
{"binder": "PPVSELITKAVAA [Unmod H1 variant P P V S E L I T K A V A A]", "discrete.label": "no"}
{"binder": "TKPGASKVATKTK [Unmod H1 variant T K P G A S K V A T K T K]", "discrete.label": "yes"}
{"binder": "TLVQTKGTGASGS [Unmod H1 variant T L V Q T K G T G A S G S]", "discrete.label": "yes"}
{"binder": "PKKAPVKPKAKSS [Unmod H1 variant P K K A P V K P K A K S S]", "discrete.label": "yes"}
{"binder": "KPKKATGAATPKK [Unmod H1 variant K P K K A T G A A T P K K]", "discrete.label": "no"}

Turning to the following binder.
hey, is peptide microarray binding signal for this one >= 0.01? IVQAASSSKERGG [Unmod H1 variant I V Q A A S S S K E R G G] yes
